Hey, just so you know, these numbers are from paper PMC9452764.

target desc: PsPto‐PscC‐LBD (Pseudomonas syringae group genomosp. 3)
Construct: gene PSPTO_2448; pET28b(+) derivative p2448-LBD, HisTrap purified, E. coli BL21(AI)
assay name: isothermal titration calorimetry
Type: binding
assay setup: read-out: K D
test readout: pKd
// pKd: -log10(molar conc.)

q: Consider the compound shown here: NCCCC(=O)O What is its recorded pKd?
a: 5.73

###

target desc: PsPto‐PscC‐LBD (Pseudomonas syringae group genomosp. 3, UniProt Q883C0)
Construct: gene PSPTO_2448; pET28b(+) derivative p2448-LBD, HisTrap purified, E. coli BL21(AI)
Sequence (Q883C0 entry or part of it): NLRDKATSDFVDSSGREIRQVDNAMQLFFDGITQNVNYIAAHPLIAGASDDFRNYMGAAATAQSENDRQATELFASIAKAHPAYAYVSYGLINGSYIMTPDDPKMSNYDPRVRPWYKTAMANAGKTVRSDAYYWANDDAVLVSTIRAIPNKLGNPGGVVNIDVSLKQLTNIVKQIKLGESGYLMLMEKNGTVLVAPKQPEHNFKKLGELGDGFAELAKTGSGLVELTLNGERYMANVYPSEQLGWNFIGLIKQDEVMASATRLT
assay name: isothermal titration calorimetry
Format: binding
test readout: Kd (µM)
Just the number in µM, nothing appended.

q: Would you mind telling me what Kd value was observed for O=C(O)[C@@H]1CCCN1 [L‐Pro] ?
a: 4.52
